Task for the reader: assign each of the following compounds its reported normalized growth.
Assay Procedure: chemical genetic growth profiling, strain panel (AID 1159580);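 note: tested at 20 µM; growth read once vehicle control cultures reached saturation at 30 °C; 1 = growth at the plate median or of vehicle wells; lower values mean less growth of the strain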
Condition Summary: S. cerevisiae deletion strains, growth OD, locus YML032C, strain rad52, stronger effect = lower value
In all, about 5,500 compounds went through this assay and about 2,000 (36%) were called active. Roughly 18% stayed inconclusive and do not appear here. The list shows a part of the results.
Please give the numeric answer without any surrounding text.

State the recorded normalized growth for this entry: `CSc1nc(NC(C)C)nc(NC(C)C)n1`
1.03

Repeat for the following compound: `CC1=CC(=O)C(C(C)C)=CC1=O`
0.89

Repeat for the following compound: CC1(C)S[C@@H]2[C@H](NC(=O)C(C(=O)O)c3ccccc3)C(=O)N2[C@H]1C(=O)O (stereo not given in full)
0.981

Repeat for the following compound: CC(=O)OCC(=O)[C@@]1(O)CCC2C3C[C@H](C)C4=CC(=O)C=CC4(C)C3[C@@H](O)CC21C (stereo not given in full)
1.02

Repeat for the following compound: CC(=O)O[C@@H]1CC2C(C)(C)CCC[C@]2(C)C2CC[C@]3(C)C(=CC(=O)O[C@H]3c3ccoc3)[C@@]21C (stereo not given in full)
0.99

Repeat for the following compound: `NC(=O)c1cc([N+](=O)[O-])cc([N+](=O)[O-])c1`
0.974

Repeat for the following compound: `Cc1c(C(N)=O)cc([N+](=O)[O-])cc1[N+](=O)[O-]`
0.978

Repeat for the following compound: `CC(C)Nc1nc(Cl)nc(NC(C)C)n1`
1.01

Repeat for the following compound: `NC(=O)c1ccc([N+](=O)[O-])cc1Cl`
0.999

Repeat for the following compound: CSCCC(N)C(=O)NC(CC(C)C)C(=O)NC(Cc1ccccc1)C(=O)O (stereo not given)
0.989
